# Species: Rattus norvegicus
# Protocol Summary: DrugMatrix - Regimen: Daily Repeat
# Format: toxicity, organism-based, Sprague-Dawley
# Parameters: regimen Daily Repeat, gender Male, age 6-8 weeks
# Experimental Context: in vivo, po, 0 mg/kg, 120 h, tissue Blood, route oral GAVAGE, dose level Control, time 5 day, vehicle 100 % WATER
Recorded Endpoint: HEMATOCRIT (%)
One number for each entry, in %.

CN(C)C(=O)Oc1cccc([N+](C)(C)C)c1.[Br-] [NEOSTIGMINE BROMIDE]    33.53
CCN(CC)CCNC(=O)c1ccc(N)cc1 [PROCAINAMIDE]    36.88
CNC1=Nc2ccc(Cl)cc2C(c2ccccc2)=[N+]([O-])C1 [CHLORDIAZEPOXIDE]    36.53
CCCC(C)C1(CC)C(=O)NC(=O)NC1=O (stereo unspecified)    33.53
NC(=O)c1cccnc1 [NIACINAMIDE]    36.72

Problem: Look up HEMATOCRIT for this compound: CCN(CC)CCOC(=O)C1(C2CCCCC2)CCCCC1
Result: 36.48
